System: TK-10 renal
Experiment: NCI-60 one-dose screen, 48 h
Settings: 10 µM unless noted
Method: Growth inhibition of the TK-10 human tumor cell line is measured as a screen for anti-cancer activity. Cells are grown in 96 well plates and exposed to the test compound for 48 hours. Compounds are tested at a single concentration, which is 10^-5 M for most compounds. The reported endpoint is percent growth (GI% or GIPRCNT), where numbers from 0 - 100% represent growth inhibition, and numbers from -100% - 0 represent cell death. For example, a value of 40 represents 60% growth inhibition. […]
About 83,000 compounds went through this panel and 20% of them were active in at least one assay; those are over-represented in the sample as a whole. The source made the active and inactive calls. Rule for the calls: active = growth percent below 10; inactive = the rest.
Lab note: assign the record to one of active, inactive

Below, 5 compounds whose answers are already recorded.
| compound | classification |
| --- | --- |
| O=C(N=Nc1c(Cl)c(O)c2ccccc2c1O)C(=O)Nc1cccc(C(F)(F)F)c1 | inactive |
| COc1cc(NCCCCC(C)N)c2nccc(C)c2c1 (stereo not given) | inactive |
| Cc1ccc(NC(=O)Cn2nncc2CN2C(=O)CSC2=O)cc1C | inactive |
| Cc1cc2nc3c(=O)[nH]c(=O)nc-3n(CC=O)c2cc1C | inactive |
| COC(=O)c1cc(Cl)cc([N+](=O)[O-])c1O | inactive |

Query string: Please state the recorded outcome for this compound: CCCc1cc2c(cc1CN(Cc1cc3c(cc1CCC)OCO3)C(=N)OCC)OCO2
Result string: inactive

Query string: # outcome recorded in this test, key = CNCc1cccc2c1OCCOCCOCCC(C)S(=O)(=O)c1ccc(cc1)-c1cnc(N)c(n1)C(=O)N2 (stereo not given)
Result string: inactive

Query string: Record request — test call for CN1CCN(Cc2ccc(NC(=O)c3cncc(C#Cc4cnc5cccnn45)c3)cc2C(F)(F)F)CC1
Result string: active

Query string: Test call, this compound: COc1cc(NC(C)CCCN)c2ncccc2c1Oc1ccc(Cl)cc1 (stereo not given)
Result string: inactive

Query string: Hey, what did the test say about COc1cccc(NC(=O)[C@H](C(C)C)n2c(=O)[nH]c3ccccc3c2=O)c1 ?
Result string: inactive

* * *

system: K-562 leukemia; assay: NCI-60 one-dose screen, 48 h; conditions: 10 µM unless noted
The panel holds about 83,000 compounds, 20% with a hit somewhere; the sample as a whole holds those more often. Calls of active or inactive are those of the source. How the source made its calls: active means growth percent below 10; inactive means the rest.
Outcomes you can answer with include only these: active, inactive

Query string: Tell me the recorded outcome of this test for CCCCn1c(-c2ccc(F)cc2)nc2cc(OC)c(OC)cc2c1=O .
Result string: inactive

Query string: Tell me the recorded outcome of this test for C=C1NC(=O)C(C(C)CC)NC(=O)C2CSCC(NC(=O)CCC(=O)O)C(=O)NC(Cc3ccccc3)C(=O)NC(C)C(=O)NC(CC(C)CC)C(=O)NC(C(=O)NC(Cc3ccccc3)C(=O)N3CCCC3C(=O)N2)C(C)OC(=O)C(CO)NC(=O)C(C(O)COC)N(C)C(=O)C(C(C)C)NC(=O)C(CC(C)CC)NC1=O (stereo not drawn) .
Result string: active

Query string: # fetch the recorded call for C/C(=N\OC(=O)Nc1cccc(Cl)c1)c1ccccc1 here
Result string: inactive

Query string: What was the test verdict on CCCCn1c(C)nc2cc(Nc3nc(Cl)nc4nc[nH]c34)ccc21 ?
Result string: inactive

Query string: For this compound, state the assay outcome: COc1ccc(/C(=C\c2cc(OC)c(OC)c(OC)c2)C(=O)N2CCN(c3ccccc3)CC2)cc1O
Result string: inactive

Query string: Returns: the outcome recorded for CC[C@H](Nc1nc(C)nc(N)c1C#N)c1nc2cccc(NCc3ccc(C(=O)NO)cc3)c2c(=O)n1-c1ccccc1 in this assay.
Result string: active
